measured_target: PARP1 L713F (UniProt P09874 1-1014, L713F)
Sequence (P09874 whole entry L713F): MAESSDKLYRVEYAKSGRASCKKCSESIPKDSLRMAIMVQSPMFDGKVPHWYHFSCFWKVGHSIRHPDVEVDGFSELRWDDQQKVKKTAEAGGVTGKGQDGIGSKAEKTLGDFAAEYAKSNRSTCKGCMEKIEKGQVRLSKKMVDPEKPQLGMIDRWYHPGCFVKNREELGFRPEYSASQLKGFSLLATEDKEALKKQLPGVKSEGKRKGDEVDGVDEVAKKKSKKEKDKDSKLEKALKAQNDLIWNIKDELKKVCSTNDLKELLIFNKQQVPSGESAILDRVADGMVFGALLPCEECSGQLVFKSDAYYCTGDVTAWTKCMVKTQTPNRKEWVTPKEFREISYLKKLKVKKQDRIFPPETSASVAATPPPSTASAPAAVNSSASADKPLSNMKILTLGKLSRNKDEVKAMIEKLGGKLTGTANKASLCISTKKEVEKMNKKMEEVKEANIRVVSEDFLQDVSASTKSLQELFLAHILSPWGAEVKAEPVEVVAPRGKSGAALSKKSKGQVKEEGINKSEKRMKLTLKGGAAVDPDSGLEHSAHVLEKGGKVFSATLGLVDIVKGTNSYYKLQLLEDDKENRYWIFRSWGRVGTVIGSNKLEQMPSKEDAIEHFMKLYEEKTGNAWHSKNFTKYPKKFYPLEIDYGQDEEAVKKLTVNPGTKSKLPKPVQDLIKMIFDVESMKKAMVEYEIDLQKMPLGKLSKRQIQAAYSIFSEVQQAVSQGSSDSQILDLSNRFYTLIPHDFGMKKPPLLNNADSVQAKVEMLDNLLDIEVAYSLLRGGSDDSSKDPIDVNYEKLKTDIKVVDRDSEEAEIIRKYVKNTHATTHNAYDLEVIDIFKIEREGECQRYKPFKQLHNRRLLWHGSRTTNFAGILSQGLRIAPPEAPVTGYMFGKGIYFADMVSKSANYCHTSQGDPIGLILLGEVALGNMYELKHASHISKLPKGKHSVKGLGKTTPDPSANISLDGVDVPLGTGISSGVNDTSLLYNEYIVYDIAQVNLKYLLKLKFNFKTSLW
run_description: fluorescence polarization
measured_endpoint: pKd
Answers are plain numbers, as −log10 of the molar value.

*Q* Fill in the blank: the reported pKd of 18-bp DSB duplex (dsDNA) DNA 1: GGGTTGCGGCCGCTTGGG DNA 2: CCCAAGCGGCCGCAACCC is ____.
*A* 7.67
